- Target or system: T1, human chemokine (C-C motif) receptor 8 (CCR8) (human, UniProt P51685 1-355)
- T1 construct: also called hCCR8
- T1 sequence (P51685 whole entry): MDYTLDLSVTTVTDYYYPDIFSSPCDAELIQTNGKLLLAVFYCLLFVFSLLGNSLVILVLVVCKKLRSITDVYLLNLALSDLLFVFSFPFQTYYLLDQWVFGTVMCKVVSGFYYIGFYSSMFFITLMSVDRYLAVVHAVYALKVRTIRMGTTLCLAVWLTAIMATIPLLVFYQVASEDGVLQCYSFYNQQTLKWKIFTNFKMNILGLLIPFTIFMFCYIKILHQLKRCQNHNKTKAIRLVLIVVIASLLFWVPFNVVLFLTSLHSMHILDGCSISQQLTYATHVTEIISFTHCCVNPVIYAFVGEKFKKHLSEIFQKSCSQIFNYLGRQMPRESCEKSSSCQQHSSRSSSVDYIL
- Protocol text: flow cytometry blocking, human PBMC, CD3+ gate; competitor PE-433H
Readout kind: % Blocking (%)
State the answer as a number, implicitly in %.

Binder	% Blocking / %
anti-CCR8 monoclonal antibody AB5 (antibody, V domains shown, Hybridoma monoclonal; also called antibody 5; clone 5) VH: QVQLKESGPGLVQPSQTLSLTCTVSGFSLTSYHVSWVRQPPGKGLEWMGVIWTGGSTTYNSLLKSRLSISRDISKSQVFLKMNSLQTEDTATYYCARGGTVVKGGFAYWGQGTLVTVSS VL: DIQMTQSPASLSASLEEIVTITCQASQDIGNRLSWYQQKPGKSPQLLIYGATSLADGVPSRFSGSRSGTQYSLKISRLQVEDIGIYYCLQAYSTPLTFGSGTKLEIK	-0.99

Tell me the measured % Blocking of anti-CCR8 monoclonal antibody AB11 (antibody, V domains shown, Hybridoma monoclonal; also called antibody 11; clone 11) VH: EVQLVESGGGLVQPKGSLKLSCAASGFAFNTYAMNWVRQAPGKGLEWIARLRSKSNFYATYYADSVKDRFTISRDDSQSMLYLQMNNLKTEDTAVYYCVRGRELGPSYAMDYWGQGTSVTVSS VL: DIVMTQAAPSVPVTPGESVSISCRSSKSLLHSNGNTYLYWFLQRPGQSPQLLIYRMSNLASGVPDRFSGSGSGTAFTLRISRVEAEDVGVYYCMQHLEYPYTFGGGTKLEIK , please.
47.2

GET /values?readout=% Blocking&item= anti-CCR8 monoclonal antibody AB6 (antibody, V domains shown, also called antibody 6; clone 6) VH: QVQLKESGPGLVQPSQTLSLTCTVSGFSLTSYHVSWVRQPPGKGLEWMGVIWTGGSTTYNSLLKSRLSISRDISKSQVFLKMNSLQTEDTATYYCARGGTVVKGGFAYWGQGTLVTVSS VL: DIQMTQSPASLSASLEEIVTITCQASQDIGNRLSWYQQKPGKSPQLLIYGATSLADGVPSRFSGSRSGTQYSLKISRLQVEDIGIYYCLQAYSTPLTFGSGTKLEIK
9.05

Value lookup for % Blocking; key = anti-CCR8 monoclonal antibody AB10 (antibody, V domains shown, Hybridoma monoclonal; also called antibody 10; clone 10) VH: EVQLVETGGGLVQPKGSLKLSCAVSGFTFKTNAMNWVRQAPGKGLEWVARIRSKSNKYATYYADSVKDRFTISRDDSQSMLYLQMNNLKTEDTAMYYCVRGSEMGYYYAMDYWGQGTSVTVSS VL: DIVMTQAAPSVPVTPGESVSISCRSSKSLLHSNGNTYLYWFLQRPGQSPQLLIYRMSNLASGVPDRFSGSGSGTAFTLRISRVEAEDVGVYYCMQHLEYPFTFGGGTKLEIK
19.9
